Values from patent EP4782453A1

Biological target: Menin-MLL (Homo sapiens)
Construct: His-Menin (M1-L615 end); purchased BIORTUS BP9210
Assay: Inhibitory activity against Menin-MLL binding (fluorescence polarization)
Details: Menin-MLL IC50, fluorescence polarization; 150 nM His-Menin, 15 nM FITC-MLL; 25°C for 60 min
experimental endpoint: pIC50
Keep in mind that pIC50 stands for -log10 of concentration in molar terms.

# molecule, pIC50
rows = [
    ("CCN(C(=O)c1cc(F)ccc1-c1cc(C2CN([C@H](CCCN3CCN4C(=O)OCC4(CO)C3)C(C)C)C2)cn2c(C)ncc12)C(C)C (stereo partly shown)", 8.38),
    ("CCS(=O)(=O)N[C@H]1CC[C@H](CN2CCC(c3cc(-c4ccc(F)cc4C(=O)N(CC(F)F)C(C)C)c4cnc(C)n4c3)CC2)CC1", 7.43),
    ("CCS(=O)(=O)N[C@H]1CC[C@H](CN2CCC(c3cc(-c4ccc(F)cc4C(=O)N(CC(F)F)C(C)C)c4cnc(C)cn34)CC2)CC1", 6.78),
]

Ask: System Menin-MLL (Homo sapiens). Read-out pIC50. Item CCN(C(=O)c1cc(F)ccc1-c1cc([C@@H]2CCN(C[C@H]3CC[C@H](NS(=O)(=O)CC)CC3)C2)nc2c1cnn2C)C(C)C . Report value.
Result: 6.13

Ask: Write down the reported pIC50 (system: Menin-MLL (Homo sapiens)) of CCN(C(=O)c1cc(F)ccc1-c1cc([C@@H]2CCN(C[C@H]3CC[C@H](NS(=O)(=O)CC)CC3)C2)cn2cncc12)C(C)C
Result: 7.85

Ask: Send back Menin-MLL (Homo sapiens) pIC50 of CCN(C(=O)c1cc(F)ccc1-c1cc([C@H]2CC[C@H](NCc3ccc(-c4cc(OC)c(OC)nn4)cc3)CC2)cn2cncc12)C(C)C only.
Result: 8.26

Ask: Please indicate recorded pIC50 of CCS(=O)(=O)N[C@H]1CC[C@H](CN2CC(c3cc(-c4ccc(F)cc4C(=O)N(CC(F)F)C(C)C)c4c(F)nc(C)n4c3)C2)CC1 measured with Menin-MLL (Homo sapiens).
Result: 8.22

Ask: Quote pIC50 with test system Menin-MLL (Homo sapiens) for CCN(C(=O)c1cc(F)ccc1-c1cc(C2(F)CCN(C[C@H]3CC[C@H](NS(=O)(=O)CC)CC3)C2)cc2c1cnn2C)C(C)C (stereo partly shown)
Result: 7.24

Ask: // fetch pIC50; item: CCN(C(=O)c1cc(F)ccc1-c1cc(C2CN(C(=O)[C@@H](NC)C3CCCC3)C2)cn2c(C)nc(F)c12)C(C)C ; system: Menin-MLL (Homo sapiens)
Result: 7.04

Ask: Retrieve pIC50 on Menin-MLL (Homo sapiens); query CCN(C(=O)c1cc(F)ccc1-n1c(=O)n(CC2CN(C(CCCN3CCN(CCO)CC3)C(C)C)C2)c2c(C)cncc21)C(C)C (stereo not shown)
Result: 6.80

----------
Molecular target: Menin-MLL (Homo sapiens)
Construct: His-Menin (M1-L615 end); purchased BIORTUS BP9210
Sequence (O00255 1-615 isoform O00255-1): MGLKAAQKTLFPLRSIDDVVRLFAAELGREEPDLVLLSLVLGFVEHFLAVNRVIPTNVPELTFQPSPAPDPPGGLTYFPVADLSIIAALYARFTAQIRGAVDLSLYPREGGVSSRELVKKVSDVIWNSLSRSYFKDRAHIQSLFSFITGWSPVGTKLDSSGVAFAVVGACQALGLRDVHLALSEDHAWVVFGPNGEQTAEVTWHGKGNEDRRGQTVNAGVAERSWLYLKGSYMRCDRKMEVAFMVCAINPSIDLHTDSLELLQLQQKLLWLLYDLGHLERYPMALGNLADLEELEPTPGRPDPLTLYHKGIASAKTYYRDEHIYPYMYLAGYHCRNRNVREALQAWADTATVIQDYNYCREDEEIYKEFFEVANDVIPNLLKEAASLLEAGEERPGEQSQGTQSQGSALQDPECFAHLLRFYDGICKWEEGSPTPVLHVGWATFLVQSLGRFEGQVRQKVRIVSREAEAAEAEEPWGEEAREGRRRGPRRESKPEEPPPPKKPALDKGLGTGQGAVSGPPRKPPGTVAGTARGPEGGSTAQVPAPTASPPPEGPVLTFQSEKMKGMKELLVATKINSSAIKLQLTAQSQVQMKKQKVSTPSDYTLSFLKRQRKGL
Assay: Inhibitory activity against Menin-MLL binding (fluorescence polarization)
Details: fluorescence polarization; 150 nM His-Menin, 15 nM FITC-MLL; 25°C for 60 min; read-out: Menin-MLL IC50
experimental endpoint: pIC50
Schema: pIC50 number; meaning minus log10 of the concentration expressed in molar units.

Solved entries:
# molecule, pIC50
data = [
    ("CCN(C(=O)c1cc(F)ccc1-c1cc(C2CN(C(CN3CCC(OC)CC3)C(C)C)C2)cn2c(C)ncc12)C(C)C (stereo not drawn)", 7.35),
    ("Cc1ncc2c(-c3ccc(F)cc3C(=O)N(CC(F)F)C(C)C)cc(C3CN(C(=O)[C@@H]4CCCCN4)C3)cn12", 7.52),
    ("Cc1nc(F)c2c(-c3ccc(F)cc3C(=O)N3[C@H](C)COC[C@H]3C)cc(C3CN(CC4CCN(CC5(O)CCOCC5)CC4)C3)cn12", 8.52),
    ("CCN(C(=O)c1cc(F)ccc1-c1cc(C2CN([C@H](CN3CCN(CCO)CC3)C(C)C)C2)cc2c1cnn2C)C(C)C", 7.97),
    ("CCN(C(=O)c1cc(F)ccc1-c1cc(C2CN(C(CCCN3CCN(C)C(COC)C3)C(C)C)C2)cn2c(C)ncc12)C(C)C (stereo not drawn)", 8.96),
]

Now for the molecule whose pIC50 we want.
Ask: Give Menin-MLL (Homo sapiens) pIC50 for the following molecule: CCN1CCN(CCC[C@H](C(C)C)N2CC(c3cc(-c4ccc(F)cc4C(=O)N(CC)C(C)C)c4cnc(C)n4c3)C2)CC1
Result: 8.70
